ASSAY_TARGET: Toll-like receptor 1/2 (Homo sapiens) (UniProt O60603+Q15399)
TEST_SUMMARY: Agonist activity at TLR2/1 in PMA-differentiated human THP-1 cells assessed as induction of IL-6 production at 2.5 uM incubated for 24 hrs after preincubation with anti-hTLR2-IGA for 2 hrs by ELISA
Format: cell-based
Active and inactive are the calls of the source. The rule behind the calls is not given here.
Give one outcome, nothing more. List: true (1) (active), false (0) (inactive)

{"SMILES_ENTRY": "CCCCCCCCCCCCCCCCNC(=O)NCCSC[C@H](NC(=O)CCCCCCCCCCCCCCC)C(=O)N[C@H](CO)C(=O)N[C@@H](CCCCN)C(=O)N[C@@H](CCCCN)C(=O)N[C@@H](CCCCN)C(=O)N[C@@H](CCCCN)C(=O)O", "ASSAY_TARGET": "Toll-like receptor 1/2 (Homo sapiens) (UniProt O60603+Q15399)", "CLASS_ASSIGNMENT": "false (0)"}
{"SMILES_ENTRY": "CCCCCCCCCCCCCCCCOC(=O)NCCSC[C@H](NC(=O)CCCCCCCCCCCCCCC)C(=O)N[C@H](CO)C(=O)N[C@@H](CCCCN)C(=O)N[C@@H](CCCCN)C(=O)N[C@@H](CCCCN)C(=O)O", "ASSAY_TARGET": "Toll-like receptor 1/2 (Homo sapiens) (UniProt O60603+Q15399)", "CLASS_ASSIGNMENT": "true (1)"}
{"SMILES_ENTRY": "CCCCCCCCCCCCCCCCOC(=O)NCCSC[C@H](NC(=O)CCCCCCCCCCCCCCC)C(=O)N[C@H](CO)C(=O)N[C@@H](CCCCN)C(=O)N[C@@H](CCCCN)C(=O)N[C@@H](CCCCN)C(=O)N[C@@H](CCCCN)C(=O)O", "ASSAY_TARGET": "Toll-like receptor 1/2 (Homo sapiens) (UniProt O60603+Q15399)", "CLASS_ASSIGNMENT": "true (1)"}
{"SMILES_ENTRY": "CCCCCCCCCCCCCCCC(=O)N[C@@H](CSCCNC(=O)OCCCCCCCCCCCCCC)C(=O)N[C@H](CO)C(=O)N[C@@H](CCCCN)C(=O)N[C@@H](CCCCN)C(=O)N[C@@H](CCCCN)C(=O)N[C@@H](CCCCN)C(=O)O", "ASSAY_TARGET": "Toll-like receptor 1/2 (Homo sapiens) (UniProt O60603+Q15399)", "CLASS_ASSIGNMENT": "false (0)"}
{"SMILES_ENTRY": "CCCCCCCCCCCCCCCC(=O)NCCSC[C@H](NC(=O)CCCCCCCCCCCCCCC)C(=O)N[C@H](CO)C(=O)N[C@@H](CCCCN)C(=O)N[C@@H](CCCCN)C(=O)N[C@@H](CCCCN)C(=O)N[C@@H](CCCCN)C(=O)O", "ASSAY_TARGET": "Toll-like receptor 1/2 (Homo sapiens) (UniProt O60603+Q15399)", "CLASS_ASSIGNMENT": "false (0)"}

Okay, now this compound:
Task: Per the assay record, what outcome was assigned to `CCCCCCCCCCCCCCCC(=O)N[C@@H](CSCCOC(=O)CCCCCCCCCCCCCCC)C(=O)N[C@H](CO)C(=O)N[C@@H](CCCCN)C(=O)N[C@@H](CCCCN)C(=O)N[C@@H](CCCCN)C(=O)N[C@@H](CCCCN)C(=O)O` ?
Output: true (1)
